Target of assay: UniProt:P21589
Sequence (P21589 27-549): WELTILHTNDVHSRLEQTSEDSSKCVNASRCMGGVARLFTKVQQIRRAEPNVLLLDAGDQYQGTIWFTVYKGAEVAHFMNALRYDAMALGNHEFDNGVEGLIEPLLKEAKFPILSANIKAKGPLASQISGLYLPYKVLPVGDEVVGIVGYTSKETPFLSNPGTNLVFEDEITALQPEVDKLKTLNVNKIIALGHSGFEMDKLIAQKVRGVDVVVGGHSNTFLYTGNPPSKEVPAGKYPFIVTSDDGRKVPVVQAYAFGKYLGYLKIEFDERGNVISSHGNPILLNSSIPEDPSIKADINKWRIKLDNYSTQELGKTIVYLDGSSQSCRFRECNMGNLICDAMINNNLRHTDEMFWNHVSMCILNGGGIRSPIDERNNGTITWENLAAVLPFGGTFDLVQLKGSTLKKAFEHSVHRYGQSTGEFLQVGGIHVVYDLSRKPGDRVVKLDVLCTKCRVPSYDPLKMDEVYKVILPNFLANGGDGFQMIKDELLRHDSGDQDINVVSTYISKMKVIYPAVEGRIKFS
pIC50: −log10 of the molar value.
Measured pIC50 of individual entries

Example entries begin here.
Compound	Measure	Data value
O=C(CP(=O)(O)O)N(CC1CC1)C[C@H]1O[C@@H](n2cnc3c(NC4CCCC4)nc(Cl)nc32)[C@H](O)[C@@H]1O	pIC50	> 7.00
CC(C)OC(=O)[C@H](C)NP(=O)(CC(=O)N(C)C[C@H]1O[C@@H](n2cnc3c(NC4CCCC4)nc(Cl)nc32)[C@H](O)[C@@H]1OC(=O)C(C)C)Oc1ccccc1 (stereo partly drawn)	pIC50	< 6.00
CC(C)OC(=O)OCOP(=O)(CC(=O)N(C)C[C@H]1O[C@@H](n2cnc3c(N[C@H]4CCOC4)nc(Cl)nc32)[C@H](O)[C@@H]1O)OCOC(=O)OC(C)C	pIC50	< 6.00
O=C(CP(=O)(O)O)N(CCO)C[C@H]1O[C@@H](n2cnc3c(NC4CCCC4)nc(Cl)nc32)[C@H](O)[C@@H]1O	pIC50	> 7.00

Recorded pIC50 of CN(C[C@H]1O[C@@H](n2cnc3c(NC4CCCC4)nc(Cl)nc32)[C@H](O)[C@@H]1O)C(=O)CP(=O)(O)OCOC(=O)C(C)(C)C , please.
< 6.00

Return reported pIC50; argument: CC(C)N(C[C@H]1O[C@@H](n2cnc3c(NC4CCCC4)nc(Cl)nc32)[C@H](O)[C@@H]1O)C(=O)CP(=O)(O)O
6.00 to 7.00

Dear colleague, I am looking for the recorded pIC50 of the following compound: CN(C[C@H]1O[C@@H](n2cnc3c(NC4CCCC4)nc(Cl)nc32)[C@H](O)[C@@H]1O)C(=O)CP1(=O)OCc2ccccc2O1 (stereo partly drawn)
< 6.00

# lookup: pIC50 of CC(C)OC(=O)[C@H](C)NP(=O)(CC(=O)N(C)C[C@H]1O[C@@H](n2cnc3c(NC4CCCC4)nc(Cl)nc32)[C@H](O)[C@@H]1O)Oc1ccccc1 (stereo partly drawn)
< 6.00

Query: pIC50; subject: COCCOC(=O)OCOP(=O)(CC(=O)N(C)C[C@H]1O[C@@H](n2cnc3c(NC4CCCC4)nc(Cl)nc32)[C@H](O)[C@@H]1O)OCOC(=O)OCCOC
< 6.00

###

pIC50: −log10 of the molar value.
For CD73 (Homo sapiens, UniProt P21589), measured pIC50 is reported for the entries below.

The following compounds have reported results that may help.
Compound	pIC50
COC(=O)[C@H](C)NP(=O)(CC(=O)N(C)C[C@H]1O[C@@H](n2cnc3c(NC4CCCC4)nc(Cl)nc32)[C@H](O)[C@@H]1O)Oc1ccccc1 (stereo partly drawn)	< 6.00
CC(C)OC(=O)[C@H](C)NP(=O)(CC(=O)N(C)C[C@H]1O[C@@H](n2cnc3c(NC4CCCC4)nc(Cl)nc32)[C@H](O)[C@@H]1O)N[C@@H](C)C(=O)OC(C)C	< 6.00
CC(C)OC(=O)OCOP(=O)(O)CC(=O)N(CC1CC1)C[C@H]1O[C@@H](n2cnc3c(NC4CCCC4)nc(Cl)nc32)[C@H](O)[C@@H]1O	< 6.00
COC(=O)OCOP(=O)(O)CC(=O)N(C)C[C@H]1O[C@@H](n2cnc3c(NC4CCCC4)nc(Cl)nc32)[C@H](O)[C@@H]1O	< 6.00
O=C(CP(=O)(O)O)NC[C@H]1O[C@@H](n2cnc3c(NC4CCCC4)nc(Cl)nc32)[C@H](O)[C@@H]1O	6.00 to 7.00

Find pIC50 (CD73 (Homo sapiens, UniProt P21589)) for the entry CN(C[C@H]1O[C@@H](n2cnc3c(NC4CCCC4)nc(Cl)nc32)[C@H](O)[C@@H]1O)C(=O)CP(=O)(O)Oc1ccccc1
< 6.00

###

Target of assay: CD73 (Homo sapiens)
Sequence (P21589 27-549): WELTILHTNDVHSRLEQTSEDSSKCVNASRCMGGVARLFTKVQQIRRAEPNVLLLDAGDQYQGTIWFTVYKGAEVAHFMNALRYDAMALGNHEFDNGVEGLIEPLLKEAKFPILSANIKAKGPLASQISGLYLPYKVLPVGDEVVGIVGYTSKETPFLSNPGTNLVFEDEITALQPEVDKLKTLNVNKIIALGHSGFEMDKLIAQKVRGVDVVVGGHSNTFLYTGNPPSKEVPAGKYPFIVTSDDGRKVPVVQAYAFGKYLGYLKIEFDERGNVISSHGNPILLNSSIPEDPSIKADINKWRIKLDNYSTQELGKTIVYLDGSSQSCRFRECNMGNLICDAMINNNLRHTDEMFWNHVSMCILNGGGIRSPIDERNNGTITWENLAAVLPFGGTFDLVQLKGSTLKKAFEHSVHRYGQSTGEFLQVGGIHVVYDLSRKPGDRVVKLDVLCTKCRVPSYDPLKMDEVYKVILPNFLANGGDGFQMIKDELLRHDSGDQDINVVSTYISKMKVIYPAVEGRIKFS
This listing pairs molecules with measured IC50.

Sample answers from the record:
> print(dat)
                           structure.smiles  measure  data.value
1  COCCOC(=O)OCOP(=O)(CC(=O)N(C)C[C@H]1O[C@@H](n2cnc3c(N[C@H]4CCOC4)nc(Cl)nc32)[C@H](O)[C@@H]1O)OCOC(=O)OCCOC     IC50   > 1000 nM
2  CCOC(=O)OCOP(=O)(O)CC(=O)N(C)C[C@H]1O[C@@H](n2cnc3c(N[C@H]4CCOC4)nc(Cl)nc32)[C@H](O)[C@@H]1O     IC50   > 1000 nM

Now look at this one.
Can you share its IC50? I mean this molecule: CN(C[C@H]1O[C@@H](n2cnc3c(NC4CCCC4)nc(Cl)nc32)[C@H](O)[C@@H]1O)C(=O)CP(=O)(Oc1ccccc1)Oc1ccccc1
> 1000 nM
